Numbers sourced from patent US11034913B2.

Tested on: mixed Gram-negative bacteria
Protocol Description: Minimum inhibitory concentration testing (biostat candidate screening, Phase 1 and Phase 2; dip slide counts)
Format: cell-based
Protocol Conditions: Phase 1; log bacterial counts at 24 and 48 h versus DCHA standard; scale 0-6, 3 = matches DCHA standard, higher = better
Observed Property: Differential Value Scores, Round 2
Answers are plain numbers.

Solved cases below.
>>> measured_number("NCC1CCCCC1")
2.5
>>> measured_number("CCCCCCCN")
4
>>> measured_number("CCCCCN")
2.5

Dear colleague, could you please provide Differential Value Scores, Round 2 for the compounds listed below?
1. CC(CN)CCCN (stereo not shown)
2. CCNC1CCCCC1
3. NCC1CCCC(CN)C1 (stereo not shown)
4. NC1CCCCC1

Result ::
[4.5, 2.5, 4, 2.5]
